melting point reference

Exam item: Which melting point is reported for this compound? COc1cccc2c(Sc3nc(C)c(CC(=O)O)s3)cc(C(=O)O)nc12
Marked response: 176 to 179 °C

Exam item: Also need COc1ccc2ccccc2c1C1C(CC(=O)O)CC(=O)N1c1ccccc1 (stereo not given) , thanks.
Marked response: 198 to 203 °C

Next compound, melting point to be filled in.
Exam item: Which melting point is reported for this compound? CN1C(=O)N(N=Cc2cccnc2)Cc2cc(C(F)(C(F)(F)F)C(F)(F)F)ccc21
Marked response: > 300 °C

----------
endpoint name: melting point

Worked cases, melting point given:
Exam item: Which melting point is reported for this compound? CC(C)(C)NC(=O)Nc1ccc(-c2c[nH]c(=O)cn2)cc1
Marked response: > 300 °C

Exam item: Also need COc1cc(OCCN2CCCC2)cc(-c2nc3cc(OC)cc(OC)c3c(=O)[nH]2)c1 , thanks.
Marked response: 159 to 160 °C

Exam item: Also need CC(=NO)C1=CCN(C)CC1 , thanks.
Marked response: 166 to 168 °C

Exam item: Also need O=C(O)c1ccc2cc([N+](=O)[O-])c3ccc(C(=O)O)nc3c2n1 , thanks.
Marked response: 218 to 220 °C

Exam item: Also need OC(CNC1CC1)COc1ccc(-c2nc(C(F)(F)F)c[nH]2)cc1 (stereo not drawn) , thanks.
Marked response: 169 to 171 °C

Exam item: Also need Cn1c(=O)c(-c2ccccc2Cl)cc2cnc(NC3C4CN(Cc5ccccc5)CC43)nc21 (stereo not drawn) , thanks.
Marked response: 92 to 94 °C

Exam item: Also need O=C(O)Cn1c(Cc2ccccc2)ccc(NC(=O)CCCc2ccccc2)c1=O , thanks.
Marked response: 159 to 161 °C

Exam item: Also need Cn1cc(C2=C(c3c4n(c5ccccc35)CCC(CNC(=O)OC(C)(C)C)C4)C(=O)N(O)C2=O)c2ccccc21 (stereo not drawn) , thanks.
Marked response: 238 to 240 °C

Exam item: Also need O=C(Nc1cccnn1)N1CCN(c2nccc(-c3cccc(F)c3)n2)CC1 , thanks.
Marked response: 238 to 239 °C

Exam item: Also need CC[C@H](COC)n1cc(Br)nc(N2CCc3cc(OC)cc(C)c32)c1=O , thanks.
Marked response: 116 to 118 °C

More entries:
Exam item: Which melting point is reported for this compound? CCOP(=O)(OCC)c1c(-c2c(OC)ccc3ccccc23)c(C)c2c(c1-c1ccccc1)COC2
Marked response: 54.1 to 56 °C

Exam item: Also need O=C1CCC(c2c[nH]c3ncccc23)CC1 , thanks.
Marked response: 162 to 164 °C

Exam item: Also need CC(C(O)C(C)(C)Cc1ccc(Cl)c(OC(F)(F)F)c1)n1cncn1 (stereo not drawn) , thanks.
Marked response: 109 to 110 °C

----------
endpoint name: melting point

Exam item: Which melting point is reported for this compound? O=[N+]([O-])c1ccc2nc(-c3ccc4c(c3)OCCO4)ncc2c1
Marked response: 263 to 265 °C

Exam item: Also need CCCCCCC(C)(C)c1ccc(C2CCCC(=O)C2)c(O)c1 (stereo unspecified) , thanks.
Marked response: 87 °C

----------
melting point reference

Worked cases, melting point given:
Exam item: Which melting point is reported for this molecule? Cc1cc(Nc2nc(-c3ccncc3)nc3ccccc23)[nH]n1
Marked response: 286 to 289 °C

Exam item: Also need O=Cc1cnc(-c2ccc(C(CC3CCOCC3)c3ccc(S(=O)(=O)C4CC4)cc3)[nH]2)s1 (centres undefined) , thanks.
Marked response: 175 to 176 °C

Exam item: Also need O=C(NCCO)OCc1ccccc1 , thanks.
Marked response: 55 to 57 °C

Exam item: Also need Cc1ccc(NC(=O)NN(C(=O)c2ccccc2)C(C)(C)C)cc1 , thanks.
Marked response: 208 to 210 °C

Exam item: Also need Cc1ncc(C(O)=S)cc1OC1CCCC1 , thanks.
Marked response: 177 to 178 °C

Exam item: Also need O=C(N[C@H](Cc1ccc(C(F)(F)F)c(F)c1)[C@@H](O)c1ccc(F)cc1)c1ccc(F)c2ccccc12 (racemic) , thanks.
Marked response: 212 to 213 °C

Exam item: Also need Cn1ccc(-c2cc3nccnc3[nH]2)c1 , thanks.
Marked response: 211 to 213 °C

Exam item: Also need COc1cccc2c1CCCC2n1cc[nH]c1=S (centres undefined) , thanks.
Marked response: 176 to 177 °C

More entries:
Exam item: Which melting point is reported for this molecule? COc1ccccc1N1CCN(CCCCNc2cc(Cl)nnc2OC)CC1
Marked response: 139 to 150 °C

Exam item: Also need Cc1cccc(CO)c1Cl , thanks.
Marked response: 63 to 64 °C

Exam item: Also need N#Cc1c(I)c(C(=O)NCCO)c(I)c(C(=O)NCCO)c1I , thanks.
Marked response: 300 °C

Exam item: Also need Cc1cccc(-c2nc(-c3cccc(C)c3)nc(-c3cccc(C)c3)n2)c1 , thanks.
Marked response: 151 to 152 °C

----------
endpoint name: melting point (°C)

Worked cases, melting point given:
Exam item: Which melting point is reported for this compound? Cc1[nH]c2ccccc2c1CSCCN1CC=C(c2ccccc2)CC1
Marked response: 182

Exam item: Also need NC(=O)[C@@H](N)CN(c1ccccc1)c1ncccn1 , thanks.
Marked response: 139

Exam item: Also need Clc1cc(COCc2cc(Cl)nc(Cl)c2)cc(Cl)n1 , thanks.
Marked response: 69.1

A. COc1cc(-c2nc(C)no2)cc([N+](=O)[O-])c1OC
B. CN(C)CCCn1c(=O)c(C#N)c(N2CCN(C(=O)c3cccs3)CC2)c2cccnc21
Exam item: Hi, I'm comparing A with B and wondering which one has the bigger number for melting point. Any idea? Reply briefly: the label of your chosen item.
Marked response: B
(B: 176 °C, A: 111 °C)

----------
endpoint name: melting point

Worked cases, melting point given:
Exam item: Which melting point is reported for this compound? Cc1c(NC(=O)c2ccc(OCc3ccccc3F)cc2)ccc2cc(CN3CCCC3)cnc12
Marked response: 104 to 105 °C

Exam item: Also need NNC(=O)c1sc2cnccc2c1Oc1ccc(C(F)(F)F)cc1 , thanks.
Marked response: 146 to 147 °C

Exam item: Also need CC(=S)NC[C@H]1CN(c2ccc(N3CCN(c4nnc(C)s4)CC3)c(F)c2)C(=O)O1 , thanks.
Marked response: 222 to 223 °C

Exam item: Also need CC(C)c1ccc(C(=O)NC/C=C/c2ccccc2)cc1 , thanks.
Marked response: 142 °C

Exam item: Also need CS(=O)(=O)Nc1cc2c(cc1Oc1ccccc1)C(NS(C)(=O)=O)C=C2 (stereo unspecified) , thanks.
Marked response: 154 °C

Next compound, melting point to be filled in.
Exam item: Which melting point is reported for this compound? COC1=CC(=O)N/C1=C\C(C)C
Marked response: 140 to 141 °C

----------
melting point reference

Worked cases, melting point given:
Exam item: Which melting point is reported for this compound? CCC(COc1cccc(COc2cccc3cccnc23)c1)OC(C)=O (configuration not stated)
Marked response: 77 to 79 °C

Exam item: Also need Cc1nc(C=Cc2nc3ccc(F)cc3c(=O)n2-c2cccnc2C)cs1 , thanks.
Marked response: 223 to 224 °C

Exam item: Also need NS(=O)(=O)c1cc2c(s1)S(=O)(=O)C(CCO)CN2 (configuration not stated) , thanks.
Marked response: 158 to 160 °C

Exam item: Also need CCOc1ncnc(C(F)(F)F)c1CS(=O)(=O)C1=NOC(C)(CCl)C1 (configuration not stated) , thanks.
Marked response: 76 to 78 °C

Exam item: Also need CCOC(=O)c1c(CC(=O)O)n(-c2ccc(OC(C)C)cc2)c2ccc(Oc3nc(C)ccc3C#N)cc12 , thanks.
Marked response: 179 °C

More entries:
Exam item: Which melting point is reported for this compound? C=CCOn1c(=O)c2cc(F)c(N3CCCC3)cc2n(Cc2ccccc2)c1=O
Marked response: 148 to 150 °C

Exam item: Also need COC(=O)[C@@H]1CC[C@@H]2CN1C(=O)N2OCc1ccccc1 , thanks.
Marked response: 86 °C

Exam item: Also need C=C(C)C(=O)OCCCc1ccc(-c2ccc(OC(=O)C(=C)C)cc2)cc1 , thanks.
Marked response: 69 °C

Exam item: Also need O=P(O)(O)C(O)(CC(O)c1ccccc1)P(=O)(O)O (configuration not stated) , thanks.
Marked response: 132 °C

Exam item: Also need CC(C)(C)NS(=O)(=O)c1c(C(=O)O)sc2ccccc12 , thanks.
Marked response: 180 °C

Exam item: Also need O=C=Nc1cc(NS(=O)(=O)CCl)c(Cl)cc1F , thanks.
Marked response: 102 °C

Exam item: Also need OCc1cc(N2CCCCC2)ncn1 , thanks.
Marked response: 70 to 72 °C

----------
melting point reference

Exam item: Which melting point is reported for this molecule? O=C(Nc1ccccc1)Oc1cc(N2C(=O)C3=C(CCCC3)C2=O)c(F)cc1Cl
Marked response: 149 to 151 °C

Exam item: Also need COc1cc([N+](=O)[O-])c2nccc(C)c2c1Cl , thanks.
Marked response: 167 to 169 °C

Exam item: Also need O=C(Nc1ccc(Oc2ccnc(N3CCC4(CC3)OCCO4)n2)c2ccccc12)c1cc(F)cc(N2CCOCC2)c1 , thanks.
Marked response: 115 to 117 °C

Exam item: Also need COc1ccc(N2CCN(c3c(C)c(C)c4c(c3C)C(=O)C(C)(C)O4)CC2)cc1C , thanks.
Marked response: 129 to 131 °C

Exam item: Also need NC(=O)C1(Nc2ccc(I)cc2)CCCC1 , thanks.
Marked response: 148 °C

More entries:
Exam item: Which melting point is reported for this molecule? CCOC(=O)NC(C)COc1ccc(Oc2ccc(F)cc2)cc1 (stereo not given)
Marked response: 55 to 56 °C

Exam item: Also need O=C(O)C1=Cc2cc(Oc3ccc(Cl)cc3)ccc2OC1C(F)(F)F (stereo not given) , thanks.
Marked response: 140 to 142 °C
